Before we begin, note that these pKi values for Glutamate receptor ionotropic, kainate 1 (Rattus norvegicus, UniProt P22756) originate from several publications.
pKi: −log10 of the molar value.
QUANTITY MEASURED: pKi

{"MOLECULE": "NC(CCc1nonc1O)C(=O)O (stereo in doubt; (+)-15)", "SIGN QUALIFIER": "=", "TEST VALUE": 4.28}
{"MOLECULE": "NC(Cc1cc(Cl)c(Cl)c(-c2cncc(O)c2)c1)C(=O)O (racemic)", "SIGN QUALIFIER": "<", "TEST VALUE": 4.30}
{"MOLECULE": "NC(Cc1cc(Cl)c(Cl)c(-c2cc(O)cc(O)c2)c1)C(=O)O (racemic)", "SIGN QUALIFIER": "<", "TEST VALUE": 4.30}
{"MOLECULE": "NC(Cc1cc(Cl)c(Cl)c(-c2ccc(S(N)(=O)=O)cc2)c1)C(=O)O (racemic)", "SIGN QUALIFIER": "<", "TEST VALUE": 4.30}
{"MOLECULE": "NC(Cc1cc(Cl)c(Cl)c(-c2cccc(O)c2)c1)C(=O)O (racemic)", "SIGN QUALIFIER": "=", "TEST VALUE": 4.03}
{"MOLECULE": "NC(Cc1cc(Cl)c(Cl)c(-c2cccc(S(N)(=O)=O)c2)c1)C(=O)O (racemic)", "SIGN QUALIFIER": "<", "TEST VALUE": 4.30}
{"MOLECULE": "N[C@@H](C[C@@H](CCC(=O)Nc1ccccc1)C(=O)O)C(=O)O", "SIGN QUALIFIER": "=", "TEST VALUE": 6.84}
{"MOLECULE": "NC(Cc1cc(Cl)c(Cl)c(-c2ccc(CO)cc2)c1)C(=O)O (racemic)", "SIGN QUALIFIER": "<", "TEST VALUE": 4.30}
{"MOLECULE": "N[C@@H](C[C@@H](CCC(=O)NOCc1ccccc1)C(=O)O)C(=O)O", "SIGN QUALIFIER": "=", "TEST VALUE": 6.09}
{"MOLECULE": "NCC[C@H](C[C@H](N)C(=O)O)C(=O)O", "SIGN QUALIFIER": "=", "TEST VALUE": 5.84}
